For each entry below, report its GI50 value.
Test system: NCI-H460
Assay: NCI tumour cell line growth inhibition, 48 h
Activity calls are given as the source filed them. Cut-off read from the data, not from the text of the source: active = GI50 up to about 1.1 µM and inactive = higher.

## Input Please report GI50 with NCI-H460 for item CCCCn1c2c(n(CCCC)c1=S)-c1c(n(CCCC)c(=S)n1CCCC)S[Se][Se]S2 .
## Output 9.95 µM (inactive)

## Input Please report GI50 with NCI-H460 for item Nc1ccc2nc(-c3cccc(C(F)(F)F)c3)cc(O)c2c1 .
## Output 29.8 µM (inactive)

## Input Please report GI50 with NCI-H460 for item COC(=O)CCCC(=O)O .
## Output > 100 µM (inactive)

## Input Please report GI50 with NCI-H460 for item C[C@@H]1C(=O)CC2(O)[C@@]13C[C@@H](OC(=O)[C@@H]3O)[C@@H](C)[C@@]21COC1=O (some centres not stated) .
## Output > 100 µM (inactive)

## Input Please report GI50 with NCI-H460 for item CCOC(=O)NC(C(=O)OCC)C(F)(F)F (configuration not stated) .
## Output > 100 µM (inactive)

## Input Please report GI50 with NCI-H460 for item CN(C)c1ccc2c(c1)C(=O)N(OS(=O)(=O)c1ccc([N+](=O)[O-])cc1)C2=O .
## Output 49.3 µM (inactive)

## Input Please report GI50 with NCI-H460 for item COC1(OC)CCCc2c1no[n+]2[O-] .
## Output > 100 µM (inactive)
